FYI, the data here is from patent US20250195513A1.

test system: IRAK4 (Homo sapiens, UniProt Q9NWZ3)
Construct: endogenous in cells; host or cells: Karpas299
assay name: IRAK4 Degradation Assay (Karpas299, HTRF/TR-FRET)
Assay type: cell-based
measurement context: Karpas-299 cells, 24 h treatment; read-out: IRAK4 in Karpas-299 (24 h) DC50
measured endpoint: DC50 (nM)

CC(C)(O)c1cc2nn([C@H]3CC[C@H](N4CCN(C(=O)[C@@H]5CCN(c6cc(F)c([C@H]7CCC(=O)NC7=O)c(F)c6)C5)CC4)CC3)cc2cc1NC(=O)c1cccc(C(F)(F)F)n1
0.8

P. CC(C)(O)c1cc2nn(C3CCC4(CC3)CCN(C3CN(c5cc(F)c([C@H]6CCC(=O)NC6=O)c(F)c5)C3)CC4)cc2cc1NC(=O)c1ccc2cc(C#N)cnn12
Q. C[C@H]1CN(C2CCN(c3cc(F)c([C@H]4CCC(=O)NC4=O)c(F)c3)CC2)CCN1[C@H]1CC[C@H](n2cc3cc(NC(=O)c4ccc5cc(C#N)cnn45)c(C(C)(C)O)cc3n2)CC1
Lookup: Rank P against Q by their DC50 values and give the higher one. Indicate your choice by writing its label.
Found: P
(P: 2.9 nM, Q: 0.5 nM)

a. CC(C)(O)c1cc2nn(C3CCN(C4CCN(C(=O)C5CN(c6cc(F)c([C@H]7CCC(=O)NC7=O)c(F)c6)C5)CC4)CC3)cc2cc1NC(=O)c1cccc(C(F)(F)F)n1
b. CC(C)(O)c1cc2nc(C3CCN(C4CCN(C(=O)C5CN(c6cc(F)c([C@H]7CCC(=O)NC7=O)c(F)c6)C5)CC4)CC3)cn2cc1NC(=O)c1cccc(C(F)(F)F)n1
Lookup: Rank a against b by their DC50 values and give the higher one. Indicate your choice by writing its label.
Found: b
(b: 1.1 nM, a: 0.4 nM)

====

test system: IRAK4 (Homo sapiens)
Construct: endogenous in cells; host or cells: Karpas299
Sequence (Q9NWZ3 1-460): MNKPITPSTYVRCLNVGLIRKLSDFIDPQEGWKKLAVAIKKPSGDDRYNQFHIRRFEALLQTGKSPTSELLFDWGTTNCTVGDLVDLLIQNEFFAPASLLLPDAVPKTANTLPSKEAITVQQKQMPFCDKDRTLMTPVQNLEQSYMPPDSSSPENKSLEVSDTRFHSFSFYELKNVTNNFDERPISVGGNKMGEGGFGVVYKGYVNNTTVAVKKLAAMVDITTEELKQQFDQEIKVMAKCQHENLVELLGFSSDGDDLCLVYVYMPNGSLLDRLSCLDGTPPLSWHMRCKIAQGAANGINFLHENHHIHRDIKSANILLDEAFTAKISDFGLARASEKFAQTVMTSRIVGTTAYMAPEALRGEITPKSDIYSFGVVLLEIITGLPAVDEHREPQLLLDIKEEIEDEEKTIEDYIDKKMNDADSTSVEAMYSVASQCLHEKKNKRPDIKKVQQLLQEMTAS
assay name: IRAK4 Degradation Assay with Human Serum (Karpas299, HTRF/TR-FRET)
Type: cell-based
measurement context: Karpas-299 in human serum, 24 hrs treatment; read-out: IRAK4 degradtion with human serum assay DC50
measured endpoint: DC50 (nM)

1. CC(C)(O)c1cc2nn(C3CCC(N4C[C@@H]5CN(C6CCN(c7cc(F)c([C@H]8CCC(=O)NC8=O)c(F)c7)CC6)C[C@H]5C4)CC3)cc2cc1NC(=O)c1ccc2cc(C#N)cnn12 (some centres unmarked)
2. CCc1cc(N2CC(C(=O)N3CCN([C@H]4CC[C@H](n5cc6cc(NC(=O)c7ccc8cc(C#N)cnn78)c(C(C)(C)O)cc6n5)CC4)CC3)C2)ccc1N1CCC(=O)NC1=O
Lookup: Given the two records 1 and 2 , choose the one whose DC50 value is lower. Indicate your choice by writing its label.
Found: 1
(1: 5 nM, 2: 28 nM)

I. CC(C)(O)c1cc2nn([C@H]3CC[C@H](N4CCN(C(=O)C5CN(c6cnc(C7CCC(=O)NC7=O)c(F)c6)C5)CC4)CC3)cc2cc1NC(=O)c1ccc2cc(C#N)cnn12 (some centres unmarked)
II. CC(C)(O)c1cc2nn(C34CC(N5CCN(CC6CCN(c7ccc8c(c7)CN(C7CCC(=O)NC7=O)C8=O)CC6)CC5)(C3)C4)cc2cc1NC(=O)c1ccc2cc(C#N)cnn12 (centres unmarked)
Lookup: Rank I against II by their DC50 values and give the higher one. Indicate your choice by writing its label.
Found: I

====

test system: IRAK4 (Homo sapiens, UniProt Q9NWZ3)
Construct: endogenous in cells; host or cells: Karpas299
assay name: IRAK4 Degradation Assay (Karpas299, HTRF/TR-FRET)
Assay type: cell-based
measurement context: Karpas-299 cells, 24 h treatment; maximum percentage of degradation; read-out: IRAK4 in Karpas-299 (24 h) Dmax (%)
measured endpoint: Dmax (%)

[2H]C([2H])([2H])Oc1cc2nn([C@H]3CC[C@H](N4CCN(C(=O)C5CN(c6cc(F)c(N7CCC(=O)NC7=O)c(F)c6)C5)CC4)CC3)cc2cc1NC(=O)c1cccc(C(F)(F)F)n1 [Example 173]
98
CC(C)(O)c1cc2nn([C@H]3CC[C@H](N4CCN(C5CCN(c6cc(F)c([C@H]7CCC(=O)NC7=O)c(F)c6)CC5)C[C@@H]4CO)CC3)cc2cc1NC(=O)c1ccc2cc(C#N)cnn12 [Example 399]
96
COC[C@H]1CN([C@H]2CC[C@H](n3cc4cc(NC(=O)c5ccc6cc(C#N)cnn56)c(C(C)(C)O)cc4n3)CC2)CCN1C1CN(c2cc(F)c([C@H]3CCC(=O)NC3=O)c(F)c2)C1 [Example 318]
91
COC[C@@H]1CN(CCc2cc(F)c([C@H]3CCC(=O)NC3=O)c(F)c2)CCN1[C@H]1CC[C@H](n2cc3cc(NC(=O)c4ccc5cc(C#N)cnn45)c(C(C)(C)O)cc3n2)CC1 [Example 325]
96
COc1cc2nn([C@H]3CC[C@H](CN4CCN(C(=O)[C@@H]5CCN(c6ccc(N7CCC(=O)NC7=O)cc6)C5)CC4)CC3)cc2cc1NC(=O)c1cccc(C(F)(F)F)n1 [Example 36]
89

====

test system: IRAK4 (Homo sapiens, UniProt Q9NWZ3)
Construct: endogenous in cells; host or cells: Karpas299
assay name: IRAK4 Degradation Assay (Karpas299, HTRF/TR-FRET)
Assay type: cell-based
measurement context: Karpas-299 cells, 24 h treatment; maximum percentage of degradation; read-out: IRAK4 in Karpas-299 (24 h) Dmax (%)
measured endpoint: Dmax (%)

A. CC(C)(O)c1cc2nn([C@H]3CC[C@H](N4CCN(CCc5cc(F)c([C@H]6CCC(=O)NC6=O)c(F)c5)C[C@@H]4CC#N)CC3)cc2cc1NC(=O)c1ccc2cc(C#N)cnn12 [Example 389]
B. CC(C)(O)c1cc2nn([C@H]3CC[C@H](N4CCN(CC(=O)N[C@@H](Cc5ccccc5)C(=O)NC5CCC(=O)NC5=O)CC4)CC3)cc2cc1NC(=O)c1ccc2cc(C#N)cnn12 (some centres unmarked) [Example 439]
C. CC(C)(O)c1cc2nn([C@H]3CC[C@H](N4CCN(C(=O)C5CN(c6cc(F)c([C@H]7CCC(=O)NC7=O)c(F)c6)C5)CC4)CC3)cc2cc1NC(=O)c1cnn2cc(C#N)cnc12 [Example 411]
Lookup: // rank the listed molecules by Dmax, lowest value first Form entry: labels listed in requested order.
Found: C, B, A
(C: 9%, B: 58%, A: 94%)

====

test system: IRAK4 (Homo sapiens, UniProt Q9NWZ3)
Construct: endogenous in cells; host or cells: Karpas299
assay name: IRAK4 Degradation Assay (Karpas299, HTRF/TR-FRET)
Format: cell-based
measurement context: Karpas-299 cells, 5 h treatment; read-out: IRAK4 in Karpas-299 (5 h) DC50
measured endpoint: DC50 (nM)

CC(C)(O)c1cc2nn([C@H]3CC[C@H](N4CCN(C5CCN(c6ccc(C7CCC(=O)NC7=O)nc6)CC5)CC4)CC3)cc2cc1NC(=O)c1ccc2cc(C#N)cnn12 (stereo partly shown) [Example 254]
6.7

1. CC(C)(O)c1cc2nn([C@H]3CC[C@H](N4CCN(C(=O)C5CN(c6cc(F)c([C@H]7CCC(=O)NC7=O)c(F)c6)C5)CC4)CC3)cc2cc1NC(=O)c1cccn(C2CC2)c1=O [Example 102]
2. COc1cc2nn(C3CCN(C4CN(C(=O)[C@@H]5CCN(c6cc(F)c([C@H]7CCC(=O)NC7=O)c(F)c6)C5)C4)CC3)cc2cc1NC(=O)c1cccc(C(F)(F)F)n1 [Example 42]
3. CC(C)(O)c1cc2nn(C3CCN(C4CCN(C(=O)[C@@H]5CCN(c6cc(F)c([C@H]7CCC(=O)NC7=O)c(F)c6)C5)CC4)CC3)cc2cc1NC(=O)c1ccc2cc(C#N)cnn12 [Example 347]
4. CC(C)(O)c1cc2nc(C3CCN(C4CCN(C(=O)C5CN(c6cc(F)c([C@H]7CCC(=O)NC7=O)c(F)c6)C5)CC4)CC3)cn2cc1NC(=O)c1cccc(C(F)(F)F)n1 [Example 126]
5. CC(C)(O)c1cc2nn([C@H]3CC[C@H](N4CCN(C5CN(c6cc(F)c([C@H]7CCC(=O)NC7=O)c(F)c6)C5)CC4)CC3)cc2cc1NC(=O)c1ccc2cc(C#N)cnn12 [Example 110]
Lookup: Output the entries ranked by DC50 from maximum down to minimum. Form entry: labels listed in requested order.
Found: 1, 4, 2, 3, 5
